experimental.protocol: soluble on expression in E. coli; label from the status in PepcDB or PDB records

{"columns": ["chain.sequence", "soluble on expression in E. coli"],
 "data": [
  ["MGSDKIHHHHHHMGILVVGSVAFDSVETPFGRVENVLGGSATYFSTSASFFTDVSLVAVVGEDFPQEHVEFLNSRNIDLRGLAREGGKTFHWKGKYGYDLNEAQTLETHLNVFESFRPQIPAAYRDAEFLFLANIDPELQMEVLSQVEKPRVIACDTMNFWISSKPEALKAVIAKVDIFIINEGEARQFTQEANLTKAARKILAMGVKTLVIKRGEYGVLMFTDHSVFAAPAFPLEDVFDPTGAGDTFAGGFMGYLANTGDTSETGIRQAIIFGSVMASFNVEDFSLNRLKRLEYREIEDRYRSFKALTHFEGLAGG", "not soluble"],
  ["MSAETYVMEIDGGPGDLHCMKCLKICNYLKDSYCCKKTKNMTLPQKKAESAFLMICLQRNTIELMVTALLANKKIIDSKGNCAFCRNKKQHEEEKWCAGRTKLQLFLHRIDKDELKVEEYLEKYLEIKTRNRMEQLDIVQARIVREMKAVAIAQGKSEEEVEHILAKQGRKARRMQRSEYKHAEEDNKGVRQRLAAKLVAKKSEIIERFCLAQRTVFVKADCPNVYGRTTTHISYLLE", "not soluble"]
]}

* * *

experimental.protocol: soluble on expression in E. coli; label from the status in PepcDB or PDB records
parameter: soluble on expression in E. coli

Recorded soluble on expression in E. coli, per entry:
{"columns": ["chain.sequence", "soluble on expression in E. coli"],
 "data": [
  ["MAHHHHHHMRAAPTRLAPSTVASLGRSHCGSQAYHLDAAGAAGWRRRRRLTGVSMTTTHTVAPAVSALPFSLSTARRTYYWPYPENLVPEGATTSPFQSSPVPSVRERIIREYALGPLFGSRTPCCVLGFAGTARDVAACKRDVRRWVARALGKSEADVELGALVQAKEMLLHRSGTDESPRLGDGPGSRPDAEQRRVTRYARLPVQARTLLEVYLPGEEHGEVDAAADADATILAHGYFLQEQLHRHMTTTASSGSDPTGRRDSEDCQPEEPARKMQSHCQGCSEPNDEADVKSSVAALHDVCGVIYCEVPVLDESDFAFDQLCGKEVDDETTERVTDRWTRRAMQQQPQL", "soluble"],
  ["GQGKLISVKTDVLDLTINTRGGDVEQALLPAYPKELNSTQPFQLLETSPQFIYQAQSGLTGRDGPDNPANGPRPLYNVEKDAYVLAEGQNELQVPMTYTDAAGNTFTKTFVLKRGDYAVNVNYNVQNAGEKPLEISSFGQLKQSITLPPHLDTGSSNFALHTFRGAAYSTPDEKYEKYKFDTIADNENLNISSKGGWVAMLQQYFATAWIPHNDGTNNFYTANLGNGIAAIGYKSQPVLVQPGQTGAMNSTLWVGPEIQDKMAAVAPHLDLTVDHHHHHH", "soluble"],
  ["MNYKADIGVFGGSGFYSFLENVEEIEMETPYGKPSDKIAIATYEGKRIAFLPRHGKNHQFPPHMIPYRANLYAMKKLGVKKILAPTSSGSLRADIKPGDFVICDQFVDRTTGRKDTFYDGPVTKHISSAHPYCPELRKIAIQVGKDLGITTHEKGTVVVIQGPRFSTVAESRWFSKMGWDVINMTQYPEVYLARELGICYANIALITDYDAGLEGRDDIEPVTEEAVLKVFAENNEKVKNMLFEVIKRIDLENSNCTCCNVDLSGLDL", "soluble"],
  ["EEGLSGSKTFKIITKDYDIMNKEIKERLGRYCTFTKVTIDEENNSFVEISCVINKLEEQKLKEIINDVDPDAFIAIYDTAEVKAGNMKKSDIY", "soluble"],
  ["MEDYANISKGKEKFFPHCFYGRCCARRMLCDANVFPYALPVEANSLKEQAPCLKDEECDLFPDFLGTCVHHQNVTNILENRRFKYFPTNNNVKPKGYGMCCYSKKSSICSTGGTPFEVELSDGPCSNHIDCNPDELPFKWNAYCSQNAKSNMCCRDTLVDSLCPDGFTPYRTQQKCEGYHPLSKSSGKCPKSNGMCHRGHCCPRLTIDEARKATPYHLNYVTDTQCDPTEPLDFVYRWAFCDEIEEKIVVMGDRNADGTELNWQQSRCTINR", "not soluble"],
  ["MIKQRTLKQSIKVTGVGLHSGEKVTLTLRPAMPNTGVVYYRTDLNPAVAFPADPNSVRDTMLCTALINEQGVRISTVEHLNAALAGLGIDNIIIEVDAPEIPIMDGSASPFIYLLLDAGIEEQNAAKKFIRIKQYVRVEDGDKWAEFKPYNGFRLDFTIDFDHPAIGKDVRNYEMNFSAQAFVHQISRARTFGFMKDIEYLQSQGLVLGGSLDNAIVLDDYRILNEDGLRFKDELVRHKMLDAIGDLYMAGYNIIGDFKAYKSGHGLNNKLLRAVLANQEAWEFVTFEDKAQVPQGYVAPVQVLILEHHHHHH", "soluble"]
]}

Looking up `MRVLALSAVFLVASIIGMPAVAKEWQENKSWNAHFTEHKSQGVVVLWNENKQQGFTNNLKRANQAFLPASTFKIPNSLIALDLGVVKDEHQVFKWDGQTRDIATWNRDHNLITAMKYSVVPVYQEFARQIGEARMSKMLHAFDYGNEDISGNVDSFWLDGGIRISATEQISFLRKLYHNKLHVSERSQRIVKQAMLTEANGDYIIRAKTGYSTRIEPKIGWWVGWVELDDNVWFFAMNMDMPTSDGLGLRQAITKEVLKQEKIIP` , I found its soluble on expression in E. coli recorded as soluble

Summary for this sequence, `GNYPRNVGLSPLSGVDPSEVFDVTPYAVATDKYFIKNATTYHLPRKLKVSYSNCYTDTAHCSIQDLGFVATLKNDEPYFRVFLGGGLGKQPKVALELDELIKPKDALYCVEGMIKFFMDYGNYENKNRARVRYMVESLGEELFLEKFKEYYKLEKENGSLELNI` : soluble on expression in E. coli is not soluble

GET /value?item= `MGSDKIHHHHHHMIGFEELNLQPGTRLQLMRHRGRTPVQYLSTFIGMERNEYLLLRLPKAQGTFLTFYDGEKVTVRVFSGVMISSFDASVIQTIHHPLNCLCISFPHAIQVKKIRREMRIKVDIEGRLGLQDRTILPVKLTNISATGCQILVDRDIGKVDGQVVLNFNIAQLHDDETSAMTLEAKVRNVVPAGLSGGASFLAGLEFVALESNVQLLVRHYVYECLVDRRQNLV` &field=soluble on expression in E. coli returns not soluble

Value of measured soluble on expression in E. coli for the entry `MAHHHHHHMGYLLEREQQRYSRHESAESATAFFASRGQTIDILGRTDPNQIKGNFFGLELYQDAMKVVMQRYTPEKRLTSADLWQPNALGDAPPPRHTLHRKLDDFLYLIVQEGATGKWTIPHTARKDDESLRMTADRAISSQNSEGLDCYVWSNAPQATVFLKDDNTRLFIYAATYLAGRPQFASFEPKPKDHAWVTRHELLQYSDTFKSAELLKALLDISADGTFEA` : not soluble

response.value for `MAHHHHHHMSLNAADAADERSRKEMDRFQVERMAGQGTFGTVQLGKEKSTGMSVAIKKVIQDPRFRNRELQIMQDLAVLHHPNIVQLQSYFYTLGERDRRDIYLNVVMEYVPDTLHRCCRNYYRRQVAPPPILIKVFLFQLIRSIGCLHLPSVNVCHRDIKPHNVLVNEADGTLKLCDFGSAKKLSPSEPNVAYICSRYYRAPELIFGNQHYTTSVDIWSVGCIFAEMMLGEPIFRGDNSAGQLHEIVRVLGCPSREVLRKLNPSHTDVDLYNSKGIPWSSVFCDHSLKDAKEAYDLLSALLQYLPEDRMKPYEALCHPYFDELHDSATKLPNNKDLPEDLFRFLPSEIEVMSEAQKAKLVRK` (field: soluble on expression in E. coli) = not soluble
